Reference source: patent US10730878B2

system: pi3K; test: pi3K kinase inhibition, % activity at 0.03 μM (kinases panel screening); format: biochemical; conditions: 0.03 μM compound
The following compounds are listed with their measured pi3K % activity @0.03 μM values.
quantity.name: pi3K % activity @0.03 μM (%)

1) CC(C)(C)c1ccc(-n2c3c4cc(-c5ccc(N)nc5)ccc4ncc3n3cnnc23)cc1 [5-pyridin-2-amine; H; CH3, CH3; CH3] : −19
2) CCc1nnc2n(-c3ccc(C(C)(C)C)cc3)c3c4cc(-c5cccnc5)ccc4ncc3n12 [3-pyridine; CH2CH3; CH3, CH3; CH3] : 79
3) CC(C)(C#N)c1ccc(-n2c3c4cc(-c5cnc(N)cc5C(F)(F)F)ccc4ncc3n3cnnc23)cc1 : 65
4) CC(C)(C)c1ccc(-n2c3c4cc(-c5cnc(N)cc5C(F)(F)F)ccc4ncc3n3cnnc23)cc1 : 30
5) CC(C)(C#N)c1ccc(-n2c3c4cc(-c5ccc(N)nc5)ccc4ncc3n3cnnc23)cc1 [5-pyridin-2-amine; H; CH3, CH3; CN] : −16
6) CCc1nnc2n(-c3ccc(C(C)(C)C)cc3)c3c4cc(-c5ccc(N)nc5)ccc4ncc3n12 [5-pyridin-2-amine; CH2CH3; CH3, CH3; CH3] : 40
7) Cc1nnc2n(-c3ccc(C(C)(C)C)cc3)c3c4cc(-c5cnc(N)cc5C(F)(F)F)ccc4ncc3n12 : 50

----------
target: mTor (Homo sapiens); construct: purchased Millipore/Merck KGA of Europe (panel screening service); assay: mTor kinase inhibition, % activity at 0.03 μM (kinases panel screening); assay type: biochemical; details: 0.03 μM compound
quantity.name: mTor % activity @0.03 μM (%)

1. CCc1nnc2n(-c3ccc(C(C)(C)C#N)cc3)c3c4cc(-c5cncnc5)ccc4ncc3n12 [5-pyrimidine; CH2CH3; CH3, CH3; CN] : 94
2. Cc1nnc2n(-c3ccc(C(C)(C)C#N)cc3)c3c4cc(-c5ccc(N)nc5)ccc4ncc3n12 [5-pyridin-2-amine; CH3; CH3, CH3; CN] : 64
3. CCc1nnc2n(-c3ccc(C(C)(C)C#N)cc3)c3c4cc(-c5cnc6[nH]ccc6c5)ccc4ncc3n12 : 29
4. Cc1nnc2n(-c3ccc(C(C)(C)C#N)cc3)c3c4cc(-c5cccnc5)ccc4ncc3n12 [3-pyridine; CH3; CH3, CH3; CN] : 80
5. CC(=O)Nc1ccc(-c2ccc3ncc4c(c3c2)n(-c2ccc(C(C)(C)C)cc2)c2nnc(C)n42)cn1 : 58
6. CC(=O)Nc1ccc(-c2ccc3ncc4c(c3c2)n(-c2ccc(C(C)(C)C#N)cc2)c2nnc(C)n42)cn1 : 74
7. Cc1nnc2n(-c3ccc(C(C)(C)C)cc3)c3c4cc(-c5cnc6[nH]ccc6c5)ccc4ncc3n12 : 54

----------
molecular target: mTor (Homo sapiens); construct: purchased Millipore/Merck KGA of Europe (panel screening service); experiment: mTor kinase inhibition, % activity at 0.03 μM (kinases panel screening); assay type: biochemical; conditions: 0.03 μM compound
quantity.name: mTor % activity @0.03 μM (%)

1. Cc1nnc2n(-c3ccc(C(C)(C)C)cc3)c3c4cc(-c5cccnc5)ccc4ncc3n12 : 88
2. C#CC(C)(C)c1ccc(-n2c3c4cc(-c5ccc(OC)nc5)ccc4ncc3n3c(CC)nnc23)cc1 : 69
3. CCc1nnc2n(-c3ccc(C(C)(C)C#N)cc3)c3c4cc(-c5ccc(NC(C)=O)nc5)ccc4ncc3n12 : 72
4. CC(C)(C#N)c1ccc(-n2c3c4cc(-c5ccc(N)nc5)ccc4ncc3n3cnnc23)cc1 : 45
5. Cc1nnc2n(-c3ccc(C(C)(C)C#N)cc3)c3c4cc(-c5cncnc5)ccc4ncc3n12 : 90
6. CC(C)(C#N)c1ccc(-n2c3c4cc(-c5cncnc5)ccc4ncc3n3cnnc23)cc1 : 64
7. CC(C)(C)c1ccc(-n2c3c4cc(-c5cnc6ccccc6c5)ccc4ncc3n3cnnc23)cc1 : 22
8. C#CC(C)(C)c1ccc(-n2c3c4cc(-c5ccc(N)nc5)ccc4ncc3n3c(CC)nnc23)cc1 : 21
9. CC(=O)Nc1ccc(-c2ccc3ncc4c(c3c2)n(-c2ccc(C(C)(C)C#N)cc2)c2nncn42)cn1 : −10
10. CC(C)(C)c1ccc(-n2c3c4cc(-c5cnc(N)cc5C(F)(F)F)ccc4ncc3n3cnnc23)cc1 : 83
11. CC(=O)Nc1ccc(-c2ccc3ncc4c(c3c2)n(-c2ccc(C(C)(C)C)cc2)c2nncn42)cn1 : −6
12. CCc1nnc2n(-c3ccc(C(C)(C)C)cc3)c3c4cc(-c5ccc(N)nc5)ccc4ncc3n12 : 20
13. Cc1nnc2n(-c3ccc(C(C)(C)C)cc3)c3c4cc(-c5cnc(N)cc5C(F)(F)F)ccc4ncc3n12 : 94
14. Cc1nnc2n(-c3ccc(C(C)(C)C)cc3)c3c4cc(-c5ccc(N)nc5)ccc4ncc3n12 : 34

----------
target: mTor (Homo sapiens, UniProt P42345); construct: purchased Millipore/Merck KGA of Europe (panel screening service); test: mTor kinase inhibition, % activity at 0.03 μM (kinases panel screening); type: biochemical; details: 0.03 μM compound
Reported mTor % activity @0.03 μM values for the following compounds.
quantity.name: mTor % activity @0.03 μM (%)

1. CCc1nnc2n(-c3ccc(C(C)(C)C)cc3)c3c4cc(-c5cccnc5)ccc4ncc3n12 [3-pyridine; CH2CH3; CH3, CH3; CH3] : 40
2. COc1ccc(-c2ccc3ncc4c(c3c2)n(-c2ccc(C(C)(C)C)cc2)c2nnc(C)n42)cn1 [2-methoxy-5-pyridine; CH3; CH3, CH3; CH3] : 97
3. CC(C)(C)c1ccc(-n2c3c4cc(-c5cncnc5)ccc4ncc3n3cnnc23)cc1 [5-pyrimidine; H; CH3, CH3; CH3] : 39
4. CC(C)(C)c1ccc(-n2c3c4cc(-c5cccnc5)ccc4ncc3n3cnnc23)cc1 [3-pyridine; H; CH3, CH3; CH3] : −4
5. COc1ccc(-c2ccc3ncc4c(c3c2)n(-c2ccc(C(C)(C)C)cc2)c2nncn42)cn1 [2-methoxy-5-pyridine; H; CH3, CH3; CH3] : 15
6. CC(C)(C#N)c1ccc(-n2c3c4cc(-c5ccnc6[nH]ccc56)ccc4ncc3n3cnnc23)cc1 : 70
7. C#CC(C)(C)c1ccc(-n2c3c4cc(-c5ccc(OC)nc5)ccc4ncc3n3c(C)nnc23)cc1 [2-methoxy-5-pyridine; CH3; CH3, CH3; CN] : 98

----------
Measured mTor % activity @0.03 μM of individual entries
biological target: mTor (Homo sapiens, UniProt P42345); construct: purchased Millipore/Merck KGA of Europe (panel screening service); assay: mTor kinase inhibition, % activity at 0.03 μM (kinases panel screening); type: biochemical; details: 0.03 μM compound
quantity.name: mTor % activity @0.03 μM (%)

1. Cc1nnc2n(-c3ccc(C(C)(C)C)cc3)c3c4cc(-c5cncnc5)ccc4ncc3n12 : 104
2. CC(C)(C)c1ccc(-n2c3c4cc(-c5cnc6[nH]ccc6c5)ccc4ncc3n3cnnc23)cc1 : −15
3. Cc1nnc2n(-c3ccc(C(C)(C)C#N)cc3)c3c4cc(-c5cnc6[nH]ccc6c5)ccc4ncc3n12 : 15
4. CC(C)(C#N)c1ccc(-n2c3c4cc(-c5cnc(N)cc5C(F)(F)F)ccc4ncc3n3cnnc23)cc1 : 87
